# Tested on: DNA polymerase iota (Homo sapiens) (UniProt Q9UNA4)
# Sequence (Q9UNA4 whole entry, looked up): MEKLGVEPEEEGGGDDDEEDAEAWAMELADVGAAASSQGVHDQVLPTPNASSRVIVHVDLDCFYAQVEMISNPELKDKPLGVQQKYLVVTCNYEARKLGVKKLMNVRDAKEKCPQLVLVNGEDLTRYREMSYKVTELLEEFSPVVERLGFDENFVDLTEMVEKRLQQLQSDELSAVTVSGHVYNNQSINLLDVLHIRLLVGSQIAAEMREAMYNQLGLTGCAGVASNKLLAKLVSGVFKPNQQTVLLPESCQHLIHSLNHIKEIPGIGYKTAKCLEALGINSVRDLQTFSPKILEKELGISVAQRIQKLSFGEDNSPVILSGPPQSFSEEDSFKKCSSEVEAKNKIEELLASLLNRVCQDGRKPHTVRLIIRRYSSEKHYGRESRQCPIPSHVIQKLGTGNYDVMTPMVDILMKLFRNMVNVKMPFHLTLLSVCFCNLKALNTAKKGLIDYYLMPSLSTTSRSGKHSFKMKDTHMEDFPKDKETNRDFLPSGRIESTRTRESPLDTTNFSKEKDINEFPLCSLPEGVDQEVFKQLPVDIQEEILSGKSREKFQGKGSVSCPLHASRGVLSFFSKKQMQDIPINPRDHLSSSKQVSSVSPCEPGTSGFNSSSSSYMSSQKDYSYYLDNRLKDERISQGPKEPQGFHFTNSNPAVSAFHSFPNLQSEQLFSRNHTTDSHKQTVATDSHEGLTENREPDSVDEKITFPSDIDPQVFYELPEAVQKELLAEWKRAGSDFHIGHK
# Protocol text: qHTS for Inhibitors of Polymerase Iota
# Conditions: Pol iota fluorescent replication assay, 10 min; series mostly up to 115 µM
Among all 390,000 compounds or so, about 4,000 (1%) were called active. Not shown: some 7% with an inconclusive outcome. The call rests on the fitted dose curve; in most records, active means well fitted inhibition curve with a large enough effect; inconclusive means small, poorly fitted or top-dose-only effect, or another doubt; inactive means no such curve, though single readings can be large or run the other way. The list comes from a sample in which actives are over-represented; it also holds close analogues and randomly drawn compounds.
Classes to choose from: Y (active), N (inactive)

Field: example entries. Status: answers known.
[
  {
    "Molecule": "CC(C)CCNC(=O)c1ccc2c(Cl)c3c(nc2c1)CCC3",
    "Tested on": "DNA polymerase iota (Homo sapiens) (UniProt Q9UNA4)",
    "Discrete label": "N"
  },
  {
    "Molecule": "Cc1ccc(N2CC(c3nnc(Cc4ccccc4Cl)o3)CC2=O)cc1 (stereo unspecified)",
    "Tested on": "DNA polymerase iota (Homo sapiens) (UniProt Q9UNA4)",
    "Discrete label": "N"
  },
  {
    "Molecule": "O=C(Nc1ccc([N+](=O)[O-])cc1)c1cnn2c1NC(=C1CC1)C=C2C(F)F",
    "Tested on": "DNA polymerase iota (Homo sapiens) (UniProt Q9UNA4)",
    "Discrete label": "N"
  },
  {
    "Molecule": "CC(=O)c1cc(C#N)c(SCC(=O)Nc2nccs2)nc1C",
    "Tested on": "DNA polymerase iota (Homo sapiens) (UniProt Q9UNA4)",
    "Discrete label": "N"
  },
  {
    "Molecule": "COc1ccc2[nH]c(C(=O)N/N=C/c3cc(OC)c(OC)c(OC)c3)cc2c1",
    "Tested on": "DNA polymerase iota (Homo sapiens) (UniProt Q9UNA4)",
    "Discrete label": "Y"
  }
]

Assay outcome for NC(=O)Nc1ccc(/C=C/c2ccnc3ccccc23)cc1 : what was it?
N

State the result this test recorded for CC(C)c1ccc(Nc2nnc(SCC(=O)c3nnc(-c4ccccc4)o3)s2)cc1 .
Y

Which outcome did this test record for the molecule COc1cccc(CNC(=O)CSc2c3c(nc4cc(Cl)ccc24)CCCC3)c1 ?
N

Test call for this molecule, please: CC(C)N(C(=O)CSc1nnc(NC2CC2)s1)c1ccccc1
N

Identify the outcome logged in this assay for the molecule shown: Cc1ccc(-c2nn3c(=O)cc(CN4CCN(C(=O)Nc5cccc(C(F)(F)F)c5)CC4)nc3s2)cc1
N

What did the test return for COc1ccc(-n2c(=O)c3sc4ccccc4c3n(CC(=O)Nc3cccc(C)c3)c2=O)cc1 ?
N

These entries and their values trace back to PubChem BioAssay AID588590.
